Where do the numbers come from? From the supplement of paper PMC6555819.

system: PPARg:RXRa IVT, anti-PPARg (NR concentration 270 nM, RXRa partner concentration 90 nM); assay: PBM binding z-score (relative to random genomic background probes); higher = stronger binding; sequences stand for … in GC…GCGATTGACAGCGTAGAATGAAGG
In this section we review reported PBM binding z-score values for a set of sequences.
endpoint.name: PBM binding z-score

construct.sequence: ATCTCTAGGTAAGACTCAATTCAGTGAAGAACGC
target.or.test.system: PPARg:RXRa IVT, anti-PPARg (NR concentration 270 nM, RXRa partner concentration 90 nM)
measured: 0.919
//
construct.sequence: TCGAGTTGGTCACGGAGGTCACACACGACGGGTA
target.or.test.system: PPARg:RXRa IVT, anti-PPARg (NR concentration 270 nM, RXRa partner concentration 90 nM)
measured: 2.98
//
construct.sequence: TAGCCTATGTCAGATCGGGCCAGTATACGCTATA
target.or.test.system: PPARg:RXRa IVT, anti-PPARg (NR concentration 270 nM, RXRa partner concentration 90 nM)
measured: -0.424
//
construct.sequence: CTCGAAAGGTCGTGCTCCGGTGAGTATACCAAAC
target.or.test.system: PPARg:RXRa IVT, anti-PPARg (NR concentration 270 nM, RXRa partner concentration 90 nM)
measured: 1.77
//
construct.sequence: CGTCCAAGATCATAGGAGGTCAGTGAAGACAGAT
target.or.test.system: PPARg:RXRa IVT, anti-PPARg (NR concentration 270 nM, RXRa partner concentration 90 nM)
measured: 1.23
//
construct.sequence: ACAGACGGGTGATGAAGGTAACTCAGGCTATCAT
target.or.test.system: PPARg:RXRa IVT, anti-PPARg (NR concentration 270 nM, RXRa partner concentration 90 nM)
measured: 0.424
//
construct.sequence: ATATGTAGGTTAAGGGTCATCCAGGTTGGTTCGC
target.or.test.system: PPARg:RXRa IVT, anti-PPARg (NR concentration 270 nM, RXRa partner concentration 90 nM)
measured: 8.22
//
construct.sequence: ACTATTAGTTGACTTAGGGCAACCGTTACGACGC
target.or.test.system: PPARg:RXRa IVT, anti-PPARg (NR concentration 270 nM, RXRa partner concentration 90 nM)
measured: 0.527
//
construct.sequence: TCATATAGGAAAATGCTAGGTGAAAGTCCGATCT
target.or.test.system: PPARg:RXRa IVT, anti-PPARg (NR concentration 270 nM, RXRa partner concentration 90 nM)
measured: 0.68
//
construct.sequence: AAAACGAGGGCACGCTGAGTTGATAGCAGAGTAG
target.or.test.system: PPARg:RXRa IVT, anti-PPARg (NR concentration 270 nM, RXRa partner concentration 90 nM)
measured: 5.01
//
construct.sequence: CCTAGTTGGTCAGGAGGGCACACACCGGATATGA
target.or.test.system: PPARg:RXRa IVT, anti-PPARg (NR concentration 270 nM, RXRa partner concentration 90 nM)
measured: 1.62
//
construct.sequence: GGAACGAGGGAATTCGAGTTGATAGCATGGCGAT
target.or.test.system: PPARg:RXRa IVT, anti-PPARg (NR concentration 270 nM, RXRa partner concentration 90 nM)
measured: -0.244
//
construct.sequence: TCATATAGGTAACACAGGTGAAAGTCGGCATCTA
target.or.test.system: PPARg:RXRa IVT, anti-PPARg (NR concentration 270 nM, RXRa partner concentration 90 nM)
measured: 4.09
//
construct.sequence: TTACCAAGGTGAGTTGAGGTCGTTGATCCAACTC
target.or.test.system: PPARg:RXRa IVT, anti-PPARg (NR concentration 270 nM, RXRa partner concentration 90 nM)
measured: 1.95
//
construct.sequence: TCTAGTTGGTCGAAGGTCACACACTCGAAATGCG
target.or.test.system: PPARg:RXRa IVT, anti-PPARg (NR concentration 270 nM, RXRa partner concentration 90 nM)
measured: 3.68
//
construct.sequence: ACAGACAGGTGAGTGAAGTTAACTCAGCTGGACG
target.or.test.system: PPARg:RXRa IVT, anti-PPARg (NR concentration 270 nM, RXRa partner concentration 90 nM)
measured: 0.404
//
construct.sequence: CCTAGTCGGTCAAGGTCACACACGCTATAGGTAC
target.or.test.system: PPARg:RXRa IVT, anti-PPARg (NR concentration 270 nM, RXRa partner concentration 90 nM)
measured: 5.27
//
construct.sequence: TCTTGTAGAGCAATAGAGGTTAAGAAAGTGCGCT
target.or.test.system: PPARg:RXRa IVT, anti-PPARg (NR concentration 270 nM, RXRa partner concentration 90 nM)
measured: 1.36
//
construct.sequence: AGAATGAGGTTATCAAGATCAGGGAATTGCGGTC
target.or.test.system: PPARg:RXRa IVT, anti-PPARg (NR concentration 270 nM, RXRa partner concentration 90 nM)
measured: 2.6
//
construct.sequence: CGTCCAAGGTCAAGGTCAGTGATAGAGACTCGAA
target.or.test.system: PPARg:RXRa IVT, anti-PPARg (NR concentration 270 nM, RXRa partner concentration 90 nM)
measured: 4.5
//
construct.sequence: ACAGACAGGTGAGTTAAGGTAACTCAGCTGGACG
target.or.test.system: PPARg:RXRa IVT, anti-PPARg (NR concentration 270 nM, RXRa partner concentration 90 nM)
measured: 0.601
//
construct.sequence: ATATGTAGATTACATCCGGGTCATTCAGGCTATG
target.or.test.system: PPARg:RXRa IVT, anti-PPARg (NR concentration 270 nM, RXRa partner concentration 90 nM)
measured: 2.32
//
construct.sequence: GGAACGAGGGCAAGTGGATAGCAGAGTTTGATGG
target.or.test.system: PPARg:RXRa IVT, anti-PPARg (NR concentration 270 nM, RXRa partner concentration 90 nM)
measured: 2.95
//
construct.sequence: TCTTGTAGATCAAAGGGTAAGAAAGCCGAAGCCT
target.or.test.system: PPARg:RXRa IVT, anti-PPARg (NR concentration 270 nM, RXRa partner concentration 90 nM)
measured: 1.86
//
construct.sequence: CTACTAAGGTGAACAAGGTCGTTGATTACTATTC
target.or.test.system: PPARg:RXRa IVT, anti-PPARg (NR concentration 270 nM, RXRa partner concentration 90 nM)
measured: 3.07
//
construct.sequence: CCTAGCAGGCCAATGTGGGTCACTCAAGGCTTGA
target.or.test.system: PPARg:RXRa IVT, anti-PPARg (NR concentration 270 nM, RXRa partner concentration 90 nM)
measured: 4.91
//
construct.sequence: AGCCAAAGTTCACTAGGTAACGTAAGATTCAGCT
target.or.test.system: PPARg:RXRa IVT, anti-PPARg (NR concentration 270 nM, RXRa partner concentration 90 nM)
measured: 4.42
//
construct.sequence: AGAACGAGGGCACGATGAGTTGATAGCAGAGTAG
target.or.test.system: PPARg:RXRa IVT, anti-PPARg (NR concentration 270 nM, RXRa partner concentration 90 nM)
measured: 3.91
//
construct.sequence: GCTAGTTGGTCAGTAAAAGGACACACACCGGTCG
target.or.test.system: PPARg:RXRa IVT, anti-PPARg (NR concentration 270 nM, RXRa partner concentration 90 nM)
measured: 0.5
//
construct.sequence: ATATGTAGGTTAGCTGGGCTCATTCAGACTAGGC
target.or.test.system: PPARg:RXRa IVT, anti-PPARg (NR concentration 270 nM, RXRa partner concentration 90 nM)
measured: 5.57
//
construct.sequence: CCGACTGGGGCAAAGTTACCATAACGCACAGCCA
target.or.test.system: PPARg:RXRa IVT, anti-PPARg (NR concentration 270 nM, RXRa partner concentration 90 nM)
measured: 3.42
//
construct.sequence: CCGACTGGGCCATAAGGTTACCATAAGCCAGCCC
target.or.test.system: PPARg:RXRa IVT, anti-PPARg (NR concentration 270 nM, RXRa partner concentration 90 nM)
measured: 2.16
//
construct.sequence: CTACCAAGGTGAACATGGTCGTTGATTACTATTC
target.or.test.system: PPARg:RXRa IVT, anti-PPARg (NR concentration 270 nM, RXRa partner concentration 90 nM)
measured: 2.62
